From: patent EP0503388A1

% of the number of subject which showed (+) Paleness was clearly observed values for the compounds below.
# System: back of volunteers (10 healthy adult males)
# PROTOCOL_SUMMARY: Vasoconstrictive activity: skin paleness after application of 0.1 % ointment in fin chamber
# Assay type: in vivo
# CONDITION_DETAILS: application time 4 hr; 4 hours after removal; 0.1 % by weight, about 20 mg of sample; 10 subjects
Give the value, in units of %, as a plain number.

[
  {
    "COMPOUND": "COC(=O)[C@H](OC(=O)C(C)(C)C)[C@@]1(O)[C@H](C)C[C@H]2[C@@H]3CCC4=CC(=O)C=C[C@]4(C)[C@@]3(F)[C@@H](O)C[C@@]21C",
    "OBSERVED": 0
  }
]

Input: Please provide the recorded % of the number of subject which showed (+) Paleness was clearly observed for C[C@@H]1C[C@H]2[C@@H]3CCC4=CC(=O)C=C[C@]4(C)[C@@]3(F)[C@@H](O)C[C@]2(C)[C@@]1(O)C(=O)CO [Dexamethasone, dexamethasone, reference compound] , tested on back of volunteers (10 healthy adult males).
Output: 0

Input: Please provide the recorded % of the number of subject which showed (+) Paleness was clearly observed for "COC(=O)[C@@H](OC(=O)C(C)(C)C)[C@@]1(O)[C@H](C)C[C@H]2[C@@H]3CCC4=CC(=O)C=C[C@]4(C)[C@@]3(F)[C@@H](O)C[C@@]21C" , tested on back of volunteers (10 healthy adult males).
Output: 10

Input: Please provide the recorded % of the number of subject which showed (+) Paleness was clearly observed for "COC(=O)[C@@H](OC(C)=O)[C@@]1(O)[C@H](C)C[C@H]2[C@@H]3CCC4=CC(=O)C=C[C@]4(C)[C@@]3(F)[C@@H](O)C[C@@]21C" , tested on back of volunteers (10 healthy adult males).
Output: 50

Input: Please provide the recorded % of the number of subject which showed (+) Paleness was clearly observed for C[C@]12C=CC(=O)C=C1CC[C@@H]1[C@@H]2[C@@H](O)C[C@@]2(C)[C@H]1CC[C@]2(O)C(=O)CO [Prednisolone, prednisolone, reference compound] , tested on back of volunteers (10 healthy adult males).
Output: 0

Input: Please provide the recorded % of the number of subject which showed (+) Paleness was clearly observed for "COC(=O)[C@H](OC(=O)C(C)(C)C)[C@@]1(O)CC[C@H]2[C@@H]3CCC4=CC(=O)C=C[C@]4(C)[C@H]3[C@@H](O)C[C@@]21C" , tested on back of volunteers (10 healthy adult males).
Output: 40
